Where do the numbers come from? From ChEMBL document CHEMBL3580653.

target.or.system: Atypical chemokine receptor 3 (Homo sapiens)
Sequence (P25106 whole entry): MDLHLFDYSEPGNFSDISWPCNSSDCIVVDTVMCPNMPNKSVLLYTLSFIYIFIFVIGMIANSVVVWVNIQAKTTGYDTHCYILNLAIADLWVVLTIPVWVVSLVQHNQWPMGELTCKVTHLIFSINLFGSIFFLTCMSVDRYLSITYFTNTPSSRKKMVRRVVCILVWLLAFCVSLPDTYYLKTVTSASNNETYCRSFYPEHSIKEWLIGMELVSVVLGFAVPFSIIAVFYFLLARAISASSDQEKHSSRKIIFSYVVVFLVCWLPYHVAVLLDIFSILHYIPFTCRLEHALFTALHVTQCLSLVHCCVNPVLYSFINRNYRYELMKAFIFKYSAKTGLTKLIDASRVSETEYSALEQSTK
assay.remarks: Agonist activity at wild type CXCR7 (unknown origin) expressed in HEK293E cells co-transfected with receptor-eYFP construct and beta-arrestin2-Rluc assessed as induction of receptor-mediated beta-arrestin recruitment by BRET assay
Type: cell-based
experimental.context: read-out: EC50
attribute.measured: EC50

| smiles | target.or.system | EC50 |
| --- | --- | --- |
| N=C(N)NCCC[C@@H]1NC(=O)[C@H](CCCNC(=N)N)NC(=O)[C@@H](Cc2ccc(O)cc2)NC(=O)[C@@H]2CCCN2C(=O)[C@H](Cc2ccc3ccccc3c2)NC1=O | Atypical chemokine receptor 3 (Homo sapiens) | 0.19 µM |

Note: attention shifts to another entry.
Supply EC50 value. Item: CN1C(=O)[C@H](CCCNC(=N)N)NC(=O)[C@@H](Cc2ccc(O)cc2)NC(=O)[C@@H]2CCCN2C(=O)[C@H](Cc2ccc3ccccc3c2)NC(=O)[C@@H]1CCCNC(=N)N
0.24 µM
